These entries and their values trace back to ChEMBL document CHEMBL5058577.

test system: U2OS; assay: Multiplex assay against U2OS; type: toxicity, cell-based; conditions: human, 24 h, 1 µM, compound concentration 1 uM, replicate 2
ASSAY READOUT: Population Membrane Permeable-Phenotype (%)
Value expressed in %; do not type the unit.

Some entries whose results are on file:
CCCCC1=NC2(CCCC2)C(=O)N1Cc1ccc(-c2ccccc2-c2nnn[nH]2)cc1 : 9
CC[C@@H](C)Nc1nc(C)nc2c(-c3ccc(OC)nc3C)c(C)nn12 : 3
Cc1c(CC(=O)O)c2cccnc2n1Cc1ccc(S(C)(=O)=O)cc1C(F)(F)F : 9
O=C(CCCc1ccccc1)Nc1nc2ccccc2c(=O)s1 : 8
NCCc1cn(S(=O)(=O)c2c(Cl)nc3sccn23)c2ccccc12.O=C(O)C(=O)O : 9

Look at this compound and give its reported Population Membrane Permeable-Phenotype (%). Br.CS(=O)(=O)Nc1c(O)ccc2c1CCCC2C1=NCCN1 (stereo not given)
7

I'd like to know its Population Membrane Permeable-Phenotype (%). The compound in question is CCc1cc2cc(NS(=O)(=O)c3ccc(C#N)cc3)ccc2n(CC)c1=O
7

Name the recorded Population Membrane Permeable-Phenotype (%) for CC(C)(C)c1cc(NC(=O)Nc2ccc(-c3cn4c(n3)sc3cc(OCCN5CCOCC5)ccc34)cc2)no1 .
9

I am curious: what Population Membrane Permeable-Phenotype (%) value has been reported for CCCCC(=O)N(Cc1ccc(-c2ccccc2-c2nnn[nH]2)cc1)[C@H](C(=O)O)C(C)C ?
9

What value of Population Membrane Permeable-Phenotype (%) has been recorded for this entry: CC(C)c1noc(N2CCC(COc3ccc(-c4ccc(S(C)(=O)=O)cc4)nc3)CC2)n1
2

* * *

This section presents molecules with their documented Population Normal (%) values.
system: HEK-293T; experiment: Multiplex assay against HEK293T; assay type: toxicity, cell-based; conditions: human, 24 h, 1 µM, compound concentration 1 uM, replicate 2
Field: numeric (%). Do not append units.

A selection of reference data follows.
COC[C@@H](c1ccc(C(F)(F)F)cc1)N1CCN(C2(C)CCN(C(=O)c3c(C)ncnc3C)CC2)C[C@@H]1C.O=C(O)/C=C\C(=O)O [VICRIVIROC MALEATE] : 94
Cl.N=C(N)NC(=O)Cc1c(Cl)cccc1Cl [GUANFACINE HYDROCHLORIDE] : 89
Cc1c(CC(=O)O)c2cccnc2n1Cc1ccc(S(C)(=O)=O)cc1C(F)(F)F : 95
NCCc1cn(S(=O)(=O)c2c(Cl)nc3sccn23)c2ccccc12.O=C(O)C(=O)O : 95
C[C@H](N)COC(=O)[C@@H](CCCCN)NC(=O)Cc1c(-c2ccc3ccccc3c2)[nH]c2c1ccc1ccccc12 : 92
N#Cc1c(Oc2cccc(OS(=O)(=O)CCCC(F)(F)F)c2)cccc1C(F)(F)F : 90
CCCCCC(O)/C=C/[C@H]1C(=O)CC(O)C1C/C=C\CCCC(=O)O (stereo partly drawn) : 92
O=C1[C@H](Cc2ccc(O)cc2)N2C(=O)CCN(C(=O)NCc3ccccc3)[C@H]2CN1Cc1cccc2ccccc12 : 91

Please give the measured Population Normal (%) for this molecule: CC(C)c1noc(N2CCC(COc3ccc(-c4ccc(S(C)(=O)=O)cc4)nc3)CC2)n1
96

// Population Normal (%) lookup, key: COc1ccccc1N1CCN(C[C@@H](C(=O)NC(C)(C)C)c2ccccc2)CC1.Cl.Cl
93

Quick check: Population Normal (%) of O=C(CCCc1ccccc1)Nc1nc2ccccc2c(=O)s1 ?
91

I have this molecule here, Cl.NCCc1ccc(O)c(O)c1 [DOPAMINE HYDROCHLORIDE] , and I need its recorded Population Normal (%).
94

Can you share its Population Normal (%)? I mean this molecule: Cc1noc(-c2ccc(-c3ccc(CC(=O)O)cc3)cc2)c1NC(=O)O[C@H](C)c1ccccc1Cl
92
